The entries below come with measured pEC50 values attached.
- assayed.target: human somatostatin receptor subtype 5 (Homo sapiens)
- Sequence (P35346 whole entry): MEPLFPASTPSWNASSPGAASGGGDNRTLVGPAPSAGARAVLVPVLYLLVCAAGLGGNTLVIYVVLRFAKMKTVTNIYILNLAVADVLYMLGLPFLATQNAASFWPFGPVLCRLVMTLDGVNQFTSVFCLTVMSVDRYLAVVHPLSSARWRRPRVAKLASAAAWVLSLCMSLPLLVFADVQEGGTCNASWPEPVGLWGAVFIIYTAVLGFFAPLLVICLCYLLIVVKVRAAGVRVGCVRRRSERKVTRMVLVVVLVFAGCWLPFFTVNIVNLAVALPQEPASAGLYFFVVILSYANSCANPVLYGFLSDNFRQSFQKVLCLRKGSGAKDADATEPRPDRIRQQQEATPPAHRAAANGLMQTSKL
- experimental.details: cAMP assay for SST5R (inhibition of cAMP via human SST5 receptor)
pEC50: −log10 of the molar value.

Give the measured pEC50 of `Cc1cc(-c2cncc(-c3nc4cccc(F)c4[nH]3)c2N2CC[C@H](N)C2)cc(N)n1` .
6.00 to 7.00

* * *

- assayed.target: UniProt P35346
- experimental.details: cAMP assay for SST5R (inhibition of cAMP via human SST5 receptor)
- test.settings: SST5 over SST2, class symbols
property.name: Fold selectivity for SST5 vs SST2

compound="CC(N)C1(C)CN(c2c(-c3cccc(C(F)(F)F)c3)cncc2-c2nc3cc(F)cc(F)c3[nH]2)C1 (stereo not drawn) [Compound 1-69]" measured_result="+++ (+++=≥500)"
compound="CC1(N)CCN(c2c(-c3cc(F)cc(OCC#N)c3)cncc2-c2nc3cccc(F)c3[nH]2)C1 (stereo not drawn) [Compound 2-27]" measured_result="++ (++=100 to 499)"
compound="CC1(N)CCN(c2c(-c3cc(F)cc(Cl)c3)cncc2-c2nc3cccc(F)c3[nH]2)C1 (stereo not drawn) [Compound 2-4]" measured_result="++ (++=100 to 499)"
compound="COc1cc(-c2cncc(-c3nc4c(F)cccc4[nH]3)c2N2CC[C@](C)(N)C2)ccn1 [Compound 2-187]" measured_result="++ (++=100 to 499)"
compound="COc1cc(F)cc(-c2cncc(-c3nc4c(C)cccc4[nH]3)c2N2CC[C@H](N)C2)c1 [Compound 2-184]" measured_result="++ (++=100 to 499)"
compound="Cc1cc(-c2cncc(-c3nc4c(F)cccc4[nH]3)c2N2CC[C@H](N)C2)ccn1 [Compound 2-181]" measured_result="++ (++=100 to 499)"

Recorded Fold selectivity for SST5 vs SST2 of N#Cc1cccc(-c2cncc(-c3nc4c(F)cccc4[nH]3)c2N2CCC(N)(CO)C2)c1 (stereo not drawn) [Compound 2-54] , please.
+++ (+++=≥500)

Also Cc1cnc2nc(-c3cncc(-c4ccc(F)c(C#N)c4)c3N3CC[C@](C)(N)C3)[nH]c2c1 [Compound 2-170] , if possible.
+++ (+++=≥500)

Just for reference, patent US11608335B2 is where these values come from.
